All values here come from the RNAGym collection of RNA variant scans (doi:10.1093/molbev/msab373).

// reported reverse-splicing fitness for each item listed
B1: Azoarcus group I ribozyme (parent)
chain: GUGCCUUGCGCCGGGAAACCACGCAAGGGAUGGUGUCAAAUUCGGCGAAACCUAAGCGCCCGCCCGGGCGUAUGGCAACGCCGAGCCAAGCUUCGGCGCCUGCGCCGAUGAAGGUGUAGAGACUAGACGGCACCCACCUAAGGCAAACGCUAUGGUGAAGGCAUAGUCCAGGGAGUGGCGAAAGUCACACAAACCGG

Variants of: B1
Test: reverse-splicing fitness (ratio to wild type); higher = more active; in vitro selection; Mg2+ level not given
Quick one: just the number, no unit, thanks!

mutantCode | experimentalValue
C82A A111G A120U A145C C150A C169G | 0.00279
C82A A111U A120C A145U C150U C169G | 0.00959

Could you now consider this next variant?
The variant identified as C82U A111C A120U A145C C150U C169A U176A registered its reverse-splicing fitness at 0.00213
